Parameter: growth. Scope: all listed entries.
Test system: UACC-257 melanoma
Assay: NCI-60 one-dose screen, 48 h (100 = growth as untreated, 0 = no growth, -100 = all killed)
Conditions: 10 µM unless noted
About 83,000 compounds went through this panel and 20% of them were active in at least one assay; those are over-represented in the sample as a whole.
Kindly answer with a numeric value in %, unit omitted.

For orientation, consider the following solved cases.
>>> result_value("O=C1NC(SCc2ccc(F)cc2)=N/C1=C/c1cccc(OCc2ccc(Cl)cc2)c1")
95.8
>>> result_value("C=CCn1c(SCC(=O)Nc2ccc(C(=O)/C=C/c3cc(OC)c(OC)c(OC)c3)cc2)nnc1-c1ccccc1")
81.4
>>> result_value("CC1CCCN(CCCCCOc2ccc3oc4ccc(Cl)cc4c(=O)c3c2)C1 (stereo not drawn)")
-17.9
>>> result_value("Clc1ccc2c(NCCCNC3CCCCC3)ccnc2c1")
107
>>> result_value("Cc1nccc2c3ccc(OCc4cn(-c5ccc(Cl)cc5)nn4)cc3n(CC(C)C)c12")
4.16

[ask] I would be grateful if you could share the reported growth for `COc1ccc(-c2nnc(N3CCN(C(=O)CN4CCN(c5ccc(OC)cc5)CC4)CC3)nc2-c2ccc(OC)cc2)cc1` .
[reply] -8.52

[ask] Given `C[C@]12CC[C@@H]3c4ccc(O)cc4CC[C@H]3[C@@H]1C[C@H](O)C2` , state its recorded growth.
[reply] 78.5

[ask] What value of growth has been reported for the following compound? `CCC1=C[C@H]2CN(CCc3c([nH]c4ccccc34)[C@@](C(=O)OC)(c3cc4c(cc3OC)N(C)[C@H]3[C@@](O)(C(=O)OC)[C@H](OC(C)=O)[C@]5(CC)[C@@H]6C[C@@H]6CN6CC[C@]43[C@@H]65)C2)C1`
[reply] 55.1
